Recorded measurements of melting point, one per entry

Known results for compounds:
N#Cc1ncn(Cc2ccc(-c3noc(C(F)(F)F)n3)c(F)c2)n1: 120 to 123 °C
Cc1cc(C)n(Cc2ccc(-c3noc(C(F)(F)F)n3)cc2)n1: 53 to 58 °C
CCn1ncc(-c2cn(Cc3ccc(-c4noc(C(F)(F)F)n4)cc3)nn2)c1C: 138.3 to 140.1 °C

Pending compound:
IN: Tell me the measured melting point of CCOC(=O)c1cnn(Cc2ccc(-c3noc(C(F)(F)F)n3)c(F)c2)c1 , please.
OUT: 131 to 135 °C

###

RECORDED_METRIC: melting point

Known results for molecules:
FC(F)(F)c1nc(-c2ccc(Cn3cncn3)cc2)no1 [Compound 1.19]: 72 to 77 °C
O=C(Nc1ccc(Cl)cc1)c1cn(Cc2ccc(-c3noc(C(F)(F)F)n3)cc2)nn1 [Compound 1.282]: 233 to 235 °C

IN: Tell me the measured melting point of FC(F)(F)c1ncn(Cc2ccc(-c3noc(C(F)(F)F)n3)cc2)n1 [Compound 1.39] , please.
OUT: 68.2 to 70.1 °C

IN: Tell me the measured melting point of CONC(=O)c1cnn(Cc2ccc(-c3noc(C(F)(F)F)n3)cc2)c1 [Compound 1.266] , please.
OUT: 128 to 138 °C

IN: Tell me the measured melting point of CCNC(=O)c1cnn(Cc2ccc(-c3noc(C(F)(F)F)n3)cc2)c1 [Compound 1.267] , please.
OUT: 166 to 176 °C

IN: Tell me the measured melting point of O=C(O)c1cn(Cc2ccc(-c3noc(C(F)(F)F)n3)cc2)nn1 [Compound 1.271] , please.
OUT: 208 to 210 °C

###

RECORDED_METRIC: melting point

Known results for compounds:
FC(F)(F)c1nc(-c2ccc(Cn3ccnc3)cc2)no1: 45 to 55 °C
CCOCc1cn(Cc2ccc(-c3noc(C(F)(F)F)n3)cc2)nn1: 115.7 to 117.6 °C
O=Cc1cnn(Cc2ccc(-c3noc(C(F)(F)F)n3)cc2)c1: 91 to 96 °C
FC(F)(F)c1nc(-c2ccc(Cn3ccnn3)cc2)no1: 107.6 to 109.5 °C

Pending compound:
IN: Tell me the measured melting point of O=C(Nc1ccncc1)c1cn(Cc2ccc(-c3noc(C(F)(F)F)n3)cc2)nn1 , please.
OUT: 204 to 206 °C

###

Recorded measurements of melting point, one per entry

Known results for compounds:
O=C(c1cnn(Cc2ccc(-c3noc(C(F)(F)F)n3)cc2)c1)N1CCOCC1 [Compound 1.261]: 125 to 135 °C
FC(F)(F)c1nc(-c2ccc(Cn3cc(COc4ccccc4)nn3)cc2)no1 [Compound 1.28]: 103.2 to 104.9 °C
CON(C)C(=O)c1cnn(Cc2ccc(-c3noc(C(F)(F)F)n3)cc2)c1 [Compound 1.260]: 102 to 112 °C
C[Si](C)(C)c1cn(Cc2ccc(-c3noc(C(F)(F)F)n3)cc2)nn1 [Compound 1.25]: 87.8 to 89.5 °C
COC(=O)c1ncn(Cc2ccc(-c3noc(C(F)(F)F)n3)cc2)n1 [Compound 1.37]: 174 to 177.2 °C

IN: Tell me the measured melting point of CCCOC(=O)c1cnn(Cc2ccc(-c3noc(C(F)(F)F)n3)cc2)c1 [Compound 1.264] , please.
OUT: 105 to 115 °C

IN: Tell me the measured melting point of CC(C)(C)OC(=O)NCc1cn(Cc2ccc(-c3noc(C(F)(F)F)n3)cc2)nn1 [Compound 1.9] , please.
OUT: 134.7 to 136.9 °C

IN: Tell me the measured melting point of CC(C)Cc1cn(Cc2ccc(-c3noc(C(F)(F)F)n3)cc2)nn1 [Compound 1.26] , please.
OUT: 113.9 to 115.7 °C

IN: Tell me the measured melting point of CCc1cccc(CC)c1-n1ncc(-c2cn(Cc3ccc(-c4noc(C(F)(F)F)n4)cc3)nn2)c1C [Compound 1.31] , please.
OUT: 157.6 to 161.9 °C

IN: Tell me the measured melting point of CCON=Cc1cnn(Cc2ccc(-c3noc(C(F)(F)F)n3)cc2)c1 [Compound 1.286] , please.
OUT: 80 to 120 °C

IN: Tell me the measured melting point of FC(F)c1cc(C(F)F)n(Cc2ccc(-c3noc(C(F)(F)F)n3)cc2)n1 [Compound 1.17] , please.
OUT: 53 to 58 °C

IN: Tell me the measured melting point of CCOC(=O)c1cnn(Cc2ccc(-c3noc(C(F)(F)F)n3)nc2)c1 [Compound 1.269] , please.
OUT: 88 to 90 °C

IN: Tell me the measured melting point of CCN(CC)C(=O)c1cnn(Cc2ccc(-c3noc(C(F)(F)F)n3)cc2)c1 [Compound 1.259] , please.
OUT: 86 to 96 °C

IN: Tell me the measured melting point of FC(F)(F)c1nc(-c2ccc(Cn3nccn3)cc2)no1 [Compound 1.33] , please.
OUT: 105.4 to 107.9 °C

IN: Tell me the measured melting point of Fc1cc(-c2noc(C(F)(F)F)n2)ccc1Cn1cncn1 [Compound 1.101] , please.
OUT: 52 to 63 °C
